# PROTOCOL TEXT: In vivo pharmacokinetics in mice, pulmonary drug concentration after intratracheal administration
# Design: species or system male C57BL/6 mice
# CONDITION: male, C57BL/6, mouse, lung, other: intratracheal, intratracheal 2 mg/kg, parent compound dosed, at 12 hours, read-out: drug concentration in the lungs
# Source text: Compare the pharmacokinetics of the final prodrug compound of Example 1 and the control example (compound 52 in WO 2018/175173 A1) in mice: 7-9-week-old male C57BL/6 mice were randomly divided into two groups after the adaptation phase: the elastase inhibitor control group and the Example 1 group.
PROPERTY LABEL: concentration at 12 h
Write your answer as a measured quantity: the number, then the unit.

# get_value(readout='concentration at 12 h', item= `CC(C)[C@H](NC(=O)[C@@H]1CCCN1C(=O)[C@@H](NC(=O)c1ccc(C(=O)NCC(=O)O)cc1)C(C)C)B1O[C@@H]2C[C@@H]3C[C@@H](C3(C)C)[C@]2(C)O1` )
120 ng/g
